# System: ABL1 (human), P00519 [M351T]
# protocol_details: KINOMEscan competition binding
# condition_notes: compound 10.0 µM
Reported kinase still bound, per cent of control values are given for each entry in this list.

smiles_text	kinase still bound, per cent of control, %
COc1cc(N2CCN(C)CC2)ccc1Nc1ncc2c(n1)N(C)c1ccccc1C(=O)N2C	100
CCN(CC)CCCCNc1ncc2cc(-c3cc(OC)cc(OC)c3)c(NC(=O)NC(C)(C)C)nc2n1	100
Cc1n[nH]c2ccc(-c3cncc(OC[C@@H](N)Cc4c[nH]c5ccccc45)c3)cc12	100
N#Cc1cc(-c2ccnc(Nc3ccc(-n4cnc(-c5cccnc5)n4)cc3)n2)cc(N2CCOCC2)c1	69
CS(=O)(=O)N1CCN(Cc2cc3nc(-c4cccc5[nH]ncc45)nc(N4CCOCC4)c3s2)CC1	100
COc1cc(C(=O)N2CCC(N3CCN(C)CC3)CC2)ccc1Nc1ncc2c(n1)N(C)c1ccccc1C(=O)N2C	94
C=CC(=O)Nc1cc(-n2c(=O)ccc3cnc4ccc(-c5cn[nH]c5)cc4c32)ccc1C	64
O=c1[nH]c2ccccc2n1C1CCN(Cc2ccc(-c3nc4cc5[nH]cnc5cc4nc3-c3ccccc3)cc2)CC1	78
